test: Quantitative High-Throughput drug screen in 47 multiple myeloma cell lines against the NCATS MIPE library collection: OPM1_PLB cell viability assay (AID 1918989); details: CellTiter-Glo, 48 h; series mostly up to 45.8 µM; note: nearly all actives have a fitted effect of over 40% in size
Results filed as inconclusive are left out. Active and inactive are the calls of the source. Calls come from the whole dose curve; as a rule, active = well fitted cell-killing curve with a large enough effect; inconclusive = small, poorly fitted or top-dose-only effect, or effect the other way; inactive = no such curve, though single readings can be large or run the other way.
Pick one: active, inactive

Problem: Tell me the assay call for CCC(C(=O)O)C1CCC(C)C(C(C)C(O)C(C)C(=O)C(CC)C2OC3(C=CC(O)[C@@]4(CC[C@](C)(C5CC[C@@](O)(CC)C(C)O5)O4)O3)C(C)CC2C)O1 (stereo partly drawn) please.
Solution: active

Problem: Also "O=C(Nc1ccc(Oc2ccnc3[nH]ccc23)c(F)c1)c1cccn(-c2ccc(F)cc2)c1=O" , if possible.
Solution: inactive

Problem: Moving on to "NC(=O)Nc1sc(-c2ccc(F)cc2)cc1C(N)=O"
Solution: active

Problem: Would you mind doing CC1=C(C(=O)Nc2cc3cn[nH]c3cc2F)C(c2ccc(Cl)cc2F)N=C(c2ccnc(Cl)c2)N1 (stereo not drawn) as well?
Solution: active

Problem: Next entry: "Cn1cnc(=N)c2[nH]cnc21"
Solution: active

Problem: Could you do the same for "COc1ccc(S(=O)(=O)Nc2cc(-c3c(O)ccc4ccccc34)c(O)c3ccccc23)cc1" , please?
Solution: active

Problem: Next: "CC[C@@]1([C@@H]2O[C@@H]([C@H]3O[C@@](O)(CO)[C@H](C)C[C@H]3C)C[C@H]2C)CC[C@H]([C@]2(C)CC[C@]3(C[C@H](O)[C@@H](C)[C@@H]([C@@H](C)[C@@H](OC)[C@H](C)C(=O)O)O3)O2)O1"
Solution: active

Problem: And for "O=C(O)[C@H](CC(=O)N1C[C@@H]2CCCC[C@H]2C1)Cc1ccccc1" ?
Solution: inactive

----------
assay: Quantitative High-Throughput drug screen in 47 multiple myeloma cell lines against the NCATS MIPE library collection: PE2_PLB cell viability assay (AID 1919869); settings: PE2_PLB myeloma cells viability, ATP luminescence, 48 h; series mostly up to 45.8 µM; note: nearly all actives have a fitted effect of over 35% in size
Inconclusive results are not listed. Activity calls are given as the source filed them. Calls follow the shape of the dose curve; as a rule, active = well fitted cell-killing curve with a large enough effect; inconclusive = small, poorly fitted or top-dose-only effect, or effect the other way; inactive = no such curve, though single readings can be large or run the other way. Non-standard residues stand in square brackets, D forms with d. Residues, ends and D or L forms follow the SMILES beside them. *: point of attachment. Nva = CCC[C@H](N)C(=O)O; Cbz = O=C(OCc1ccccc1)*
Please state which outcome applies, choosing from active, inactive

Problem: Please let me know the test result on file for "O=C(c1ccc(F)cc1)N1CCC[C@H](c2nc(-c3ccc(F)cc3)no2)C1" .
Solution: inactive

Problem: Next record, please: "CC(=O)N1CCN(c2ccc(OCc3nn(C)c(C)c3-c3cccc4c(CCCOc5cccc6ccccc56)c(C(=O)O)n(Cc5cccnc5)c34)cc2)CC1"
Solution: active

Problem: Again, but for CC(C(C)N1CC(=O)NC(=O)C1)N1CC(=O)NC(=O)C1 (centres undefined)
Solution: inactive

Problem: Would you kindly repeat that for "O=c1[nH]c(=O)n([C@H]2C[C@@H](O)[C@@H](CO)O2)cc1C=CBr" ?
Solution: inactive

Problem: Next compound: "C=Cc1c(C)c2cc3nc(cc4[nH]c(cc5nc(cc1[nH]2)C(C)=C5CCC(=O)O)c(CCC(=O)OC)c4C)[C@@]1(C)C3=CC=C(C(=O)OC)[C@H]1C(=O)OC"
Solution: active

Problem: Can you check "C=CC(=O)N1CCc2ccc(-n3c(=O)ccc4cnc5ccc(-c6cnn(C)c6)cc5c43)cc21" next?
Solution: active

Problem: Check "CCCCC(=O)O[C@]1(C(=O)CO)[C@@H](C)C[C@H]2[C@@H]3CCC4=CC(=O)C=C[C@]4(C)[C@@]3(F)[C@@H](O)C[C@@]21C" too.
Solution: inactive

Problem: Also check "Oc1ccc(-c2ccc(-c3cc(Nc4cccc(CNC5CC5)c4)n[nH]3)cc2)c(O)c1"
Solution: active

Problem: Moving on to the next compound: "CN1C(C(=O)Nc2ccccn2)=C(O)c2sc(Cl)cc2S1(=O)=O"
Solution: active

Problem: Now consider CC(=O)C1=C(O)C=C2Oc3c(C(C)=O)c(O)c(C)c(O)c3C2(C)C1=O (centres undefined) and answer again.
Solution: inactive

Problem: Same lookup for "CC(C)(N)c1ccc(-c2nc3ccccc3nc2-c2ccccc2)cc1" , please.
Solution: active

Problem: How about "C#Cc1cccc(Nc2ncnc3cc(OCCOC)c(OCCO)cc23)c1" ?
Solution: active

Problem: Item: "O=C1c2cccc(O)c2C(=O)c2c(O)cc(CO)cc21"
Solution: inactive

Problem: Same lookup for "NC(=O)c1cccc(-c2cccc(OC(=O)NC3CCCCC3)c2)c1" , please.
Solution: inactive

Problem: Then what about the compound "C=CC1=C(C(=O)O)N2C(=O)[C@@H](NC(=O)C(=NO)c3csc(N)n3)[C@H]2SC1" ?
Solution: inactive

Problem: Another: "C#C[C@]1(O)CC[C@@H]2[C@@H]3CCc4cc(O)ccc4[C@H]3CC[C@@]21C"
Solution: active

Problem: Same for "C[C@H]1C[C@H]2[C@@H]3CCC4=CC(=O)C=C[C@]4(C)[C@@H]3C(=O)C[C@]2(C)[C@@]1(O)C(=O)CO"
Solution: inactive

Problem: Similarly, CCC[C@@H](C=O)NC(=O)[C@H](CC(C)C)NC(=O)[C@H](CC(C)C)NC(=O)OCc1ccccc1 (Cbz-Leu-Leu-[Nva]-aldehyde) ?
Solution: active

Problem: What do you have for "CS[C@H]1SC[C@@H]2C(=O)N(C)[C@H](C(C)C)C(=O)OC[C@H](NC(=O)c3cnc4ccccc4n3)C(=O)N[C@H](C)C(=O)N(C)[C@@H]1C(=O)N(C)[C@H](C(C)C)C(=O)OC[C@H](NC(=O)c1cnc3ccccc3n1)C(=O)N[C@H](C)C(=O)N2C" ?
Solution: active

Problem: Cc1ccc(O)c(C(CCN(C(C)C)C(C)C)c2ccccc2)c1 (centres undefined) , same question.
Solution: inactive

Problem: Quick one: "COc1cccc2c1C(=O)c1c(O)c3c(c(O)c1C2=O)C[C@@](O)(C(=O)CO)C[C@@H]3O[C@H]1C[C@H](N)[C@@H](O)[C@H](C)O1"
Solution: active

Problem: // query: CCCCCCCCCCCC(CC1OC(=O)C1CCCCCC)OC(=O)C(CC(C)C)NC=O (centres undefined)
Solution: inactive

Problem: Next compound: "Cc1cc(O)c2c(c1)C(=O)c1cccc(O)c1C2=O"
Solution: inactive

Problem: Subsequent entry: "CCCCCCCCCCCCCCCC(=O)OC[C@@H](NC(=O)C(Cl)Cl)[C@H](O)c1ccc([N+](=O)[O-])cc1"
Solution: inactive

Problem: Also "CCc1c(O)cc(O)c(C(=O)c2ccc(OCCN3CCOCC3)c(OC)c2)c1CC(=O)N(CCOC)CCOC" ?
Solution: active

Problem: Queued: "C=C1C(=CC=C2CCC[C@]3(C)[C@@H]([C@H](C)CCCC(C)(C)O)CC[C@@H]23)C[C@@H](O)C[C@@H]1O"
Solution: active

Problem: "O=C1c2c(O)cccc2[C@@H]([C@@H]2O[C@H](CO)[C@@H](O)[C@H](O)[C@H]2O)c2cc(CO)cc(O)c21" ?
Solution: inactive

Problem: Also need "CCN(CC)Cc1ccc2cc(COC(=O)Nc3ccc(C(=O)NO)cc3)ccc2c1" , thanks.
Solution: active

Problem: Can you handle "C[N+](C)([O-])CCNc1ccc(NCC[N+](C)(C)[O-])c2c1C(=O)c1c(O)ccc(O)c1C2=O" next?
Solution: inactive

Problem: Try this compound too: "CC1(C)O[C@@H]2C[C@H]3[C@@H]4CCC5=CC(=O)C=C[C@]5(C)[C@@H]4[C@@H](O)C[C@]3(C)[C@]2(C(=O)CO)O1"
Solution: inactive

Problem: "CCN(CC)CCNC(=O)c1c(C)[nH]c(C=C2C(=O)Nc3ccc(F)cc32)c1C" , same question.
Solution: active

Problem: Also "C[C@H]1COc2c(N3CCN(C)CC3)c(F)cc3c(=O)c(C(=O)O)cn1c23" ?
Solution: inactive

Problem: Repeat with "O=C(O)C=Cc1ccc(Cn2ccnc2)cc1"
Solution: inactive

Problem: Similarly, N[C@H]1CN(c2c(F)cc3c(=O)c(C(=O)O)cn(C4C[C@@H]4F)c3c2Cl)CC12CC2 (some centres undefined) ?
Solution: inactive

----------
Assay: qHTS Screen of the MIPE 4.0 Collection Against Ewings Sarcoma (RDES) (AID 1259252); note: nearly all actives have a fitted effect of over 35% in size
Settings: RD-ES Ewing sarcoma viability, CellTiter-Glo, 48 h; series mostly up to 45.8 µM
Description: There is a large unmet medical need for treatments for Ewing sarcoma, a pediatric sarcoma. […] Using the NCATS developed oncology compound library called the Mechanism of Interrogation Plate (MIPE), four Ewing sarcoma cell lines were evaluated (TC32, TC71, RDES, EW8). Compounds, in a 12-point titration series, were incubated with cells for 48 hours and the read out was cell viability (CellTiter-Glo from Promega). […]
Records with an inconclusive call do not appear. The source made the active and inactive calls. Calls come from the whole dose curve; as a rule, active = well fitted inhibition curve with a large enough effect; inconclusive = small, poorly fitted or top-dose-only effect; inactive = no such curve, though single readings can be large or run the other way.
Choose one outcome from this list and give only that: Y (active), N (inactive)

Problem: What was the test verdict on "CCNC(=O)c1cc2c(-c3cc(OCCN4CCCC4)c(Cl)cc3Cl)nc(N)nc2s1" ?
Solution: Y

Problem: Next record, please: "CC(C)N(CC[C@H](c1ccccc1)c1cc(CO)ccc1O)C(C)C"
Solution: N

Problem: Same read-out for "Cc1ccc([N+](=O)[O-])cc1S(=O)(=O)N(C)N=Cc1cnc2ccc(Br)cn12" ?
Solution: Y

Problem: Same question for "C=C(C)[C@@H]1CC[C@]2(C)CC[C@]3(C)[C@H](CC[C@@H]4[C@@]5(C)CC[C@H](O)C(C)(C)[C@H]5CC[C@]43C)[C@@H]12" please.
Solution: N

Problem: Could you do the same for "CC(C)(O)CC[C@@H](O)[C@](C)(O)[C@H]1CC[C@@]2(O)C3=CC(=O)[C@@H]4C[C@@H](O)[C@@H](O)C[C@]4(C)[C@@H]3CC[C@]12C" , please?
Solution: N

Problem: And the next one, "O=[N+]([O-])c1cn2c(n1)OC[C@@H](OCc1ccc(OC(F)(F)F)cc1)C2" ?
Solution: Y

Problem: Follow-up entry: "CCN(C(=O)c1c(O)c2c(Cl)cccc2n(C)c1=O)c1ccccc1"
Solution: N

Problem: Please do the same for CC(C)C[C@H](NC(=O)CNC(=O)c1cc(Cl)ccc1Cl)B1OC(=O)CC(CC(=O)O)(C(=O)O)O1 (some centres not stated) as well.
Solution: Y

Problem: Moving on to the next compound: "C[C@@H]1[C@H](C)CC[C@]2(C(=O)O)CC[C@]3(C)C(=CC[C@@H]4[C@@]5(C)C[C@@H](O)[C@H](O)[C@@](C)(CO)[C@H]5CC[C@]43C)[C@@H]12"
Solution: N

Problem: Note, next up: "CC(C)(N)c1ccc(-c2nc3ccccc3nc2-c2ccccc2)cc1"
Solution: Y

Problem: Item: "COc1cc(CCc2cc(NC(=O)c3ccc(N4C[C@@H](C)N[C@@H](C)C4)cc3)n[nH]2)cc(OC)c1"
Solution: Y

Problem: Also "Cn1cnc2c(F)c(Nc3ccc(Br)cc3F)c(C(=O)NOCCO)cc21" ?
Solution: N

Problem: Could you do the same for OCCNC1CCCc2c1[nH]c1ccc(-c3ccccc3)cc21 (configuration not stated) , please?
Solution: Y

Problem: Again, but for "Cc1cc(O)c2c(c1)C(=O)c1cccc(O)c1C2=O"
Solution: N

Problem: Queued: CCOC(=O)C1=C(C)NC(=S)NC1c1cccc(O)c1 (configuration not stated)
Solution: Y

Problem: Consider next the compound "C[C@H](CCC(=O)O)[C@H]1CC[C@H]2[C@@H]3[C@H](O)C[C@@H]4C[C@H](O)CC[C@]4(C)[C@@H]3CC[C@]12C" in the same way.
Solution: N

Problem: Proceed to "CC(=O)O[C@]1(C(C)=O)CC[C@H]2[C@@H]3C=C(C)C4=CC(=O)CC[C@]4(C)[C@@H]3CC[C@@]21C"
Solution: Y
